system: DMS-273; test: cells; type: functional, cell-based; conditions: Homo sapiens
Description: SANGER: Inhibition of human DMS-273 cell growth in a cell viability assay.
Give measured IC50 for each item. Keep answers brief.
Provide only the numeric value, understood in nM.

# lookup: IC50 of `C/C(=C\c1csc(C)n1)[C@@H]1C[C@@H]2O[C@]2(C)CCC[C@H](C)[C@H](O)[C@@H](C)C(=O)C(C)(C)[C@@H](O)CC(=O)O1` 1.62

# lookup: IC50 of `CO[C@@H]1[C@H](N(C)C(=O)c2ccccc2)C[C@H]2O[C@]1(C)n1c3ccccc3c3c4c(c5c6ccccc6n2c5c31)C(=O)NC4` 324

* * *

tested on: NCI-H187; assay: cells; assay type: functional, cell-based, Homo sapiens; conditions: nci-h187;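 note: growth inhibition of NCI-H187 cells, read out as cell viability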
Description: SANGER: Inhibition of human NCI-H187 cell growth in a cell viability assay.
pIC50: −log10 of the molar value. Where a SMILES comes first, the peptide text is derived from it. The star is where a group is joined. Cbz = O=C(OCc1ccccc1)*
measure: pIC50

# lookup: pIC50 of CC(C)C[C@@H](C=O)NC(=O)[C@H](CC(C)C)NC(=O)[C@H](CC(C)C)NC(=O)OCc1ccccc1 [MG-132] (Cbz-Leu-Leu-Leu-aldehyde) < 6.00

* * *

tested on: LU-165; test: cells; type: functional, cell-based, Homo sapiens; conditions: Homo sapiens, LU-165
Description: SANGER: Inhibition of human LU-165 cell growth in a cell viability assay.
Give measured IC50 for each item. Keep answers brief.

# lookup: IC50 of `C[C@@H](Oc1cc(-c2cnn(C3CCNCC3)c2)cnc1N)c1c(Cl)ccc(F)c1Cl` > 2000 nM

# lookup: IC50 of `CCCCCCCCCCCC1=C(O)C(=O)C=C(O)C1=O` > 32000 nM

# lookup: IC50 of `COC(=O)[C@H](CCSC)NC(=O)c1ccc(NC[C@@H](N)CS)cc1-c1ccccc1` > 1020 nM

* * *

Give measured IC50 for each item. Keep answers brief.
test system: RH-1; test: cells; assay type: functional, cell-based, Homo sapiens; conditions: Homo sapiens, RH-1;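 note: growth inhibition of human RH-1 cells, read out with a cell viability assay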
Description: SANGER: Inhibition of human RH-1 cell growth in a cell viability assay.
Provide only the numeric value, understood in nM.

# lookup: IC50 of `O=C(NCCCNc1nc(Nc2cccc(NC(=O)N3CCCC3)c2)ncc1I)c1cccs1` 1700

# lookup: IC50 of `OC[C@H](Cc1ccccc1)Nc1nc(Oc2ccc3c(c2)CCC3)nc2c1ncn2Cc1ccc(-c2ccccc2)cc1` 5290

* * *

tested on: HLE; assay: cells; format: functional, cell-based; settings: Homo sapiens;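 note: growth inhibition of human HLE cells, read out by a cell viability assay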
Description: SANGER: Inhibition of human HLE cell growth in a cell viability assay.
Give measured pIC50 for each item. Keep answers brief.
Remember, pIC50 is on a log scale: it is -log10 of the molar concentration.

# lookup: pIC50 of `Cc1ccc(C(=O)Nc2ccc(CN3CCN(C)CC3)c(C(F)(F)F)c2)cc1C#Cc1cnc2cccnn12` 6.38

# lookup: pIC50 of `CN(NC(=O)CC(=O)NN(C)C(=S)c1ccccc1)C(=S)c1ccccc1` 8.00

* * *

test system: MDA-MB-468; experiment: cells; assay type: functional, cell-based; conditions: Homo sapiens
Description: SANGER: Inhibition of human MDA-MB-468 cell growth in a cell viability assay.
measure: pIC50
Remember, pIC50 is on a log scale: it is -log10 of the molar concentration.

# lookup: pIC50 of C/C(=C\c1csc(C)n1)[C@@H]1C[C@@H]2O[C@]2(C)CCC[C@H](C)[C@H](O)[C@@H](C)C(=O)C(C)(C)[C@@H](O)CC(=O)O1 [PATUPILONE] 8.76

* * *

Give measured IC50 for each item. Keep answers brief.
tested on: U-698-M; test: cells; format: functional, cell-based, Homo sapiens; conditions: Homo sapiens, U-698-M
Description: SANGER: Inhibition of human U-698-M cell growth in a cell viability assay.

// map `NC(=O)c1cccc(-c2cc(Nc3ccc(OC(F)(F)F)cc3)ncn2)c1` to recorded IC50 (system: U-698-M) > 1280 nM

// map `Cc1ccc(C(=O)Nc2ccc(CN3CCN(C)CC3)c(C(F)(F)F)c2)cc1C#Cc1cnc2cccnn12` to recorded IC50 (system: U-698-M) > 512 nM

// map `COc1cc(N2CCC(N3CCN(C)CC3)CC2)ccc1Nc1ncc(Cl)c(Nc2ccccc2S(=O)(=O)C(C)C)n1` to recorded IC50 (system: U-698-M) > 2000 nM

// map `C[C@@H](Oc1cc(-c2cnn(C3CCNCC3)c2)cnc1N)c1c(Cl)ccc(F)c1Cl` to recorded IC50 (system: U-698-M) > 2000 nM

// map C=CC(=O)N1CCCC(Nc2nc(Nc3ccc(N(C)C(=O)CC)cc3)nc3[nH]cnc23)C1 (stereo not drawn) to recorded IC50 (system: U-698-M) > 10200 nM

// map `Cc1cc(N2CCOCC2)cc2[nH]c(-c3c(NC[C@@H](O)c4cccc(Cl)c4)cc[nH]c3=O)nc12` to recorded IC50 (system: U-698-M) > 5120 nM

// map `COc1ccc(-c2cc3nccn3c(Nc3ncccc3C(N)=O)n2)cc1OC` to recorded IC50 (system: U-698-M) 1020 nM

// map `Cc1ccc(NC(=O)c2ccc(CN3CCN(C)CC3)cc2)cc1Nc1nccc(-c2cccnc2)n1` to recorded IC50 (system: U-698-M) > 2000 nM
